The measurements presented in this section are drawn from PubChem BioAssay (Tox21).

Assay name: qHTS assay to identify small molecule antagonists of the glucocorticoid receptor (GR) signaling pathway - cell viability counter screen (AID 720693); further: nearly all actives have a fitted effect of over 55% in size
Condition label: GR-bla HeLa viability, CellTiter-Glo luminescence, 18 h, with 5 nM dexamethasone present; series mostly up to 58.5 µM
Results filed as inconclusive are left out. The source made the active and inactive calls. The call rests on the fitted dose curve; in most records, active means well fitted cell-killing curve with a large enough effect in the repeat runs; inconclusive means weak or mixed curves, or effect the other way; inactive means no such curve, though single readings can be large or run the other way.
Outcome codes: active, inactive

[[record]]
compound = "O=C(NCCO[N+](=O)[O-])c1cccnc1"
category = "inactive"

[[record]]
compound = "CC(C)(C)OCC1CO1 (centres undefined)"
category = "inactive"

[[record]]
compound = "NCc1ccccc1Sc1ccccc1CO"
category = "inactive"

[[record]]
compound = "CN1C[C@H]2c3ccccc3Oc3ccc(Cl)cc3[C@@H]2C1"
category = "inactive"

[[record]]
compound = "Cc1nn(C)c(Oc2ccccc2)c1/C=N/OCc1ccc(C(=O)OC(C)(C)C)cc1"
category = "inactive"

[[record]]
compound = "O=C(Nc1ccc(S(=O)(=O)N2CCOCC2)cc1)c1cc(Cl)ccc1NS(=O)(=O)c1ccc(Cl)s1"
category = "active"

[[record]]
compound = "S=C([S-])NCCNC(=S)[S-].[Mn+2]"
category = "inactive"

[[record]]
compound = "COc1ccc(C(=O)N2CCN(CC(=O)N3CCOCC3)CC2)cc1"
category = "inactive"

[[record]]
compound = "CCCCCCCCCCO[C@@H]1O[C@H](CO)[C@@H](O)[C@H](O)[C@H]1O"
category = "inactive"

[[record]]
compound = "ClCCOCCOCCCl"
category = "inactive"

[[record]]
compound = "C[C@@H]1C[C@H]2O[C@@]3(O[C@@H]2C(C)(C)O)[C@H](O)[C@@]2(C)[C@@H]4CC[C@H]5C(C)(C)[C@@H](O[C@@H]6OC[C@@H](O)[C@H](O)[C@H]6O)CC[C@@]56C[C@@]46CC[C@]2(C)[C@@H]13"
category = "inactive"

[[record]]
compound = "CC(C)(CO)[N+](=O)[O-]"
category = "inactive"

[[record]]
compound = "CC[N+](C)(CC)CCOC(=O)C(O)(c1ccccc1)C1CCCCC1 (centres undefined)"
category = "inactive"

[[record]]
compound = "CCCCc1nc2cccnc2n1Cc1ccc(-c2ccccc2-c2nnn[nH]2)cc1"
category = "inactive"

[[record]]
compound = "CC(CC=O)c1ccccc1 (centres undefined)"
category = "inactive"

[[record]]
compound = "c1ccc(CNCCNCc2ccccc2)cc1"
category = "inactive"

[[record]]
compound = "O=[N+]([O-])c1ccc(NCCO)c(OCCO)c1"
category = "inactive"

[[record]]
compound = "O=CC1CC=CCC1 (centres undefined)"
category = "inactive"

[[record]]
compound = "CCCCC(CC)COC(=O)COc1ccc(Cl)cc1Cl (centres undefined)"
category = "inactive"

[[record]]
compound = "COc1ccnc(CS(=O)c2nc3ccc(OC(F)F)cc3[nH]2)c1OC (centres undefined)"
category = "inactive"

[[record]]
compound = "COc1cc(Cl)c(OC)cc1N"
category = "inactive"

[[record]]
compound = "CC(=O)c1cccc([N+](=O)[O-])c1"
category = "inactive"

[[record]]
compound = "CCC(C)c1cc(C(C)(C)C)c(O)c(C(C)(C)C)c1 (centres undefined)"
category = "inactive"

[[record]]
compound = "CCOCC(O)COc1ccc(NC(=O)CC[S+](C)C)cc1 (centres undefined)"
category = "inactive"

[[record]]
compound = "CC(=O)c1ccc2c(c1)N(CCCN(C)C)c1ccccc1S2"
category = "inactive"

[[record]]
compound = "O=C(O)C1(C(=O)Nc2ccc(Cl)cc2Cl)CC1"
category = "inactive"

[[record]]
compound = "C=C(C)C(=O)OCCO"
category = "inactive"

[[record]]
compound = "CCCn1cnc2c1c(=O)n(CCCCC(C)=O)c(=O)n2C"
category = "inactive"

[[record]]
compound = "OCCNCc1ccccc1"
category = "inactive"

[[record]]
compound = "Cc1cc(N)c2cc(NC(=O)Nc3ccc4nc(C)cc(N)c4c3)ccc2n1"
category = "inactive"

[[record]]
compound = "C=C(C)C(=O)OCCOCC"
category = "inactive"

[[record]]
compound = "CCOC(=O)COC(=O)c1cc(Oc2ccc(C(F)(F)F)cc2Cl)ccc1[N+](=O)[O-]"
category = "inactive"

[[record]]
compound = "COc1cc(Cl)ccc1Oc1ccc(Cl)cc1Cl"
category = "inactive"

[[record]]
compound = "C=CCOc1ccccc1OCC(O)CNC(C)C (centres undefined)"
category = "inactive"

[[record]]
compound = "Nc1cccc(S(=O)(=O)c2cccc(N)c2)c1"
category = "inactive"

[[record]]
compound = "CN(C)C(=O)NC1(c2ccccc2)CCN(CC[C@@]2(c3ccc(F)c(F)c3)CN(C(=O)c3ccccc3)CCO2)CC1"
category = "inactive"

[[record]]
compound = "CN1CCN(C(c2ccccc2)c2ccccc2)CC1"
category = "inactive"

[[record]]
compound = "C/C(=C(\\CCOP(=O)(O)O)SC(=O)c1ccccc1)N(C=O)Cc1cnc(C)nc1N"
category = "inactive"

[[record]]
compound = "CNCCCCOc1ccccc1Cc1ccccc1"
category = "inactive"

[[record]]
compound = "CCC(CC)Nc1ccc(C)c(C)c1"
category = "inactive"

[[record]]
compound = "C/C=C/C=C/CO"
category = "inactive"

[[record]]
compound = "OCc1cc(C(O)CNCCCCCCOCCCCc2ccccc2)ccc1O (centres undefined)"
category = "inactive"

[[record]]
compound = "COc1cccc(N(C)C(=S)Oc2ccc3c(c2)CCCC3)n1"
category = "inactive"

[[record]]
compound = "CCN(CC)CCNc1ccc(CNC=O)c2sc3ccc(OC)cc3c(=O)c12"
category = "active"

[[record]]
compound = "CCN(CC)CCOC(=O)C(Cc1cccc2ccccc12)CC1CCCO1 (centres undefined)"
category = "inactive"

[[record]]
compound = "CCCCCCCCCOS(=O)(=O)O"
category = "inactive"

[[record]]
compound = "NC(=O)C(c1ccccc1)(c1ccccc1)[C@@H]1CCN(CCc2ccc3c(c2)CCO3)C1"
category = "inactive"

[[record]]
compound = "CNC(=O)CN(CCN(CCN(CC(=O)[O-])CC(=O)NC)CC(=O)[O-])CC(=O)[O-].O.[Gd+3]"
category = "inactive"

[[record]]
compound = "CC1=CCCC(C)(C)C12CCC(C)O2 (centres undefined)"
category = "inactive"

